Here the recorded Ki is given for each entry.
biological target: BChE (Equus caballus); construct: BChE (from horse serum); assay: biochemical; conditions: Lineweaver–Burk plots
Sequence (P81908 whole entry): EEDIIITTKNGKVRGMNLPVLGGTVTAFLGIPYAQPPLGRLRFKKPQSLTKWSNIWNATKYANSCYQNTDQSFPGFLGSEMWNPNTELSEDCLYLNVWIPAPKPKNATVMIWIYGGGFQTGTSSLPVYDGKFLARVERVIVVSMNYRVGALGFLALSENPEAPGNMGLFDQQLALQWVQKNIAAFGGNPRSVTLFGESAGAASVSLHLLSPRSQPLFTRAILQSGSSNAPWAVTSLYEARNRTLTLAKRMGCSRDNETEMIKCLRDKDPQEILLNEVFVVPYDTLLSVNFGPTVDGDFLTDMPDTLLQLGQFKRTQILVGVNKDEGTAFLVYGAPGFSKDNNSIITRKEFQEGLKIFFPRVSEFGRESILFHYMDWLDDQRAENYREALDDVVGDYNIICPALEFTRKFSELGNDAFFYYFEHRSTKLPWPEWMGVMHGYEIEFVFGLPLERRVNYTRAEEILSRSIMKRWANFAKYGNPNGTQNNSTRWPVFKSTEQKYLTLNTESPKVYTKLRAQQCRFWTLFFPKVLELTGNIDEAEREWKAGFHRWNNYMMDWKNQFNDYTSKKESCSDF
Answer shape: numeric part, then the unit.

# COMPOUND, RESULT
records = [
    ("OCc1ccc(C=NNc2nc(-c3ccc(Cl)cc3Cl)cs2)o1 [2l]", "5.74 µM"),
    ("Cc1ccc(-c2csc(NN=Cc3ccc(CO)o3)n2)cc1 [2g]", "12.9 µM"),
    ("O=[N+]([O-])c1ccc(-c2csc(NN=Cc3ccc(CO)o3)n2)cc1 [2a]", "6.03 µM"),
]

Fill blank: measured Ki of the compound OCc1ccc(C=NNc2nc(-c3ccc(F)cc3)cs2)o1 [2d] is ____.
7.44 µM

Fill blank: measured Ki of the compound OCc1ccc(C=NNc2nc(-c3ccc(Cl)cc3)cs2)o1 [2k] is ____.
8.51 µM

Fill blank: measured Ki of the compound OCc1ccc(C=NNc2nc(-c3ccc(F)cc3F)cs2)o1 [2i] is ____.
6.52 µM
